Origin of values: patent US6828330B2

biological target: α7 nAChR (Rattus norvegicus); construct: the brains (whole brain minus cerebellum) are dissected quickly, weighed and homogenized; experiment: [3H]-MLA competition binding assay in rat brain membranes; conditions: inhibition of [3H]-MLA binding (3.0 to 4.0 nM), rat brain homogenate (whole brain minus cerebellum), 1 hr at 25° C, Cheng-Prusoff
Sequence (Q05941 23-502): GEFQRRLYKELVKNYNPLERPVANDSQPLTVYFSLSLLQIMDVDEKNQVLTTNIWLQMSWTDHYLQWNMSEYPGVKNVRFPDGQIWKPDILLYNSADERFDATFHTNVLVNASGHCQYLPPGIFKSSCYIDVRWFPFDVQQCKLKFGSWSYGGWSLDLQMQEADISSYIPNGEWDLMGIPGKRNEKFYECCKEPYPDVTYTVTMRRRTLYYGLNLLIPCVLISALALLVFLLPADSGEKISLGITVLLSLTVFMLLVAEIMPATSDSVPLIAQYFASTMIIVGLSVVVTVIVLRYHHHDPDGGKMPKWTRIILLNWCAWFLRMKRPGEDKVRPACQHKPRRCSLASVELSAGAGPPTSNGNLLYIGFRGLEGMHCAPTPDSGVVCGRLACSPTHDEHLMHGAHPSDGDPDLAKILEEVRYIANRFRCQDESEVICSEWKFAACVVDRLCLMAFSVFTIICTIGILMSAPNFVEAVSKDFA
pKi: −log10 of the molar value.
Please enter Criterion met where pKi is greater than or equal to 7, and Criterion not met where it is lower.

Query: Please indicate if the recorded pKi for "O=C(N[C@H]1CN2CCC1CC2)c1ccc2ncsc2c1" meets or exceeds 7.
Reply: Criterion met

Query: Please indicate if the recorded pKi for O=C(N[C@H]1CN2CCC1CC2)c1ccc2c(c1)OCO2 [Example 7, 4-methylbenzenesulfonate] meets or exceeds 7.
Reply: Criterion met

Query: Please indicate if the recorded pKi for "Cc1nc2cc(C(=O)N[C@H]3CN4CCC3CC4)ccc2o1" meets or exceeds 7.
Reply: Criterion not met

Query: Please indicate if the recorded pKi for "O=C(N[C@H]1CN2CCC1CC2)c1ccc2ocnc2c1" meets or exceeds 7.
Reply: Criterion met

====

molecular target: α7 nAChR (Rattus norvegicus); construct: the brains (whole brain minus cerebellum) are dissected quickly, weighed and homogenized; assay: [3H]-MLA competition binding assay in rat brain membranes; conditions: inhibition of [3H]-MLA binding (3.0 to 4.0 nM), rat brain homogenate (whole brain minus cerebellum), 1 hr at 25° C, Cheng-Prusoff
Structures can show the parent of a compound that is named as a salt.
Please respond with reported pKi for every item in the list.
Note on units: pKi is unitless, being -log10 of a concentration expressed in mol/L.

Query: Indicate the recorded pKi value for this compound: O=C(N[C@H]1CN2CCC1CC2)c1ccc2c(c1)CCC2 [Example 6]
Reply: 6.96

Query: Indicate the recorded pKi value for this compound: C[C@H]1[C@H](NC(=O)c2nc3ccccc3s2)C2CCN1CC2 [Example 1005, hydrochloride]
Reply: 7.14

Query: Indicate the recorded pKi value for this compound: C[C@H]1[C@H](NC(=O)c2ccc3ncsc3c2)C2CCN1CC2 [Example 11, hydrochloride]
Reply: 7.04
